Values from patent US10647677B2

# Measured on: αB-crystalline (αB-C) (Homo sapiens)
# Construct: purchased
# Sequence (P02511 1-175): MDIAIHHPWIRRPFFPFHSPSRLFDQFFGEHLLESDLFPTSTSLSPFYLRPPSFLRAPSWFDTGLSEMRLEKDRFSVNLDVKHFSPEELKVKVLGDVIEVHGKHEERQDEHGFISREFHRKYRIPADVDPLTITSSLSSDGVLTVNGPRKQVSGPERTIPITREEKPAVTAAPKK
# Protocol notes: Surface plasmon resonance (Biacore 3000) affinity on αB-crystalline
# Assay type: binding
# Test conditions: Table 1; SPR at 25° C.; read-out: Kd (M) on crystallin
Property label: Kd (M)

Use the examples below as a reference point.
CCN(CCO)CCCC(C)Nc1c(Cl)cnc2cc(Cl)ccc12 (centres unmarked) [CB072]: 1.6e-07
CCN(CCO)CCCC(C)Nc1c(Cl)cnc2cc(Cl)ccc12 (centres unmarked) [CB137]: 1.75e-07
CCN(CCO)CCCC(C)Nc1ccnc2cc(Cl)ccc12 (single isomer, unassigned) [CB133]: 2.19e-09
CCN(CCO)CCCC(C)Nc1c(C(=O)C(F)(F)F)cnc2cc(Cl)ccc12 (centres unmarked): 2.2e-05
CCN(CCO)CCCC(C)Nc1c(C(=O)C2CC2)cnc2cc(Cl)ccc12 (centres unmarked): 6.6e-07

[I] CCN(CCO)CCCC(C)Nc1ccnc2cc(Cl)ccc12 (centres unmarked) [Commercial HCQ, hydroxychloroquine]
[II] CCN(CCO)CCCC(C)Nc1c(C(F)(F)F)cnc2cc(Cl)ccc12 (centres unmarked)
I'd appreciate it if you could identify which of I and II has the greater Kd. // output: label of the selected item
II
(II: 8.1e-07 M, I: 2.2e-08 M)

---

# Measured on: αB-crystalline (αB-C) (Homo sapiens)
# Construct: purchased
# Protocol notes: Surface plasmon resonance (Biacore 3000) affinity on αB-crystalline
# Assay type: binding
# Test conditions: Table 2; compounds in the form of sulphate salts; SPR at 25° C.; read-out: Kd (M) on crystallin
Property label: Kd (M)

[1] CCN(CCO)CCCC(C)Nc1c(C2CC2)cnc2cc(Cl)ccc12 (stereo not drawn)
[2] CCN(CCO)CCC[C@@H](C)Nc1ccnc2cc(Cl)cc(Cl)c12 [CB321 R-enantiomer]
I'd appreciate it if you could identify which of 1 and 2 has the greater Kd. // output: label of the selected item
1

[a] CCN(CCO)CCCC(C)Nc1ccnc2cc(Cl)cc(Cl)c12 (stereo not drawn)
[b] CCN(CCO)CCCC(C)Nc1ccnc2cc(Cl)ccc12 (stereo not drawn) [Commercial HCQ, hydroxychloroquine]
Pick one, a or b : lowest reported Kd. // output: label of the selected item
b

---

# Measured on: myeloperoxidase (MPO) (Homo sapiens, UniProt P05164)
# Construct: purchased
# Sequence (P05164 49-745, species assumed): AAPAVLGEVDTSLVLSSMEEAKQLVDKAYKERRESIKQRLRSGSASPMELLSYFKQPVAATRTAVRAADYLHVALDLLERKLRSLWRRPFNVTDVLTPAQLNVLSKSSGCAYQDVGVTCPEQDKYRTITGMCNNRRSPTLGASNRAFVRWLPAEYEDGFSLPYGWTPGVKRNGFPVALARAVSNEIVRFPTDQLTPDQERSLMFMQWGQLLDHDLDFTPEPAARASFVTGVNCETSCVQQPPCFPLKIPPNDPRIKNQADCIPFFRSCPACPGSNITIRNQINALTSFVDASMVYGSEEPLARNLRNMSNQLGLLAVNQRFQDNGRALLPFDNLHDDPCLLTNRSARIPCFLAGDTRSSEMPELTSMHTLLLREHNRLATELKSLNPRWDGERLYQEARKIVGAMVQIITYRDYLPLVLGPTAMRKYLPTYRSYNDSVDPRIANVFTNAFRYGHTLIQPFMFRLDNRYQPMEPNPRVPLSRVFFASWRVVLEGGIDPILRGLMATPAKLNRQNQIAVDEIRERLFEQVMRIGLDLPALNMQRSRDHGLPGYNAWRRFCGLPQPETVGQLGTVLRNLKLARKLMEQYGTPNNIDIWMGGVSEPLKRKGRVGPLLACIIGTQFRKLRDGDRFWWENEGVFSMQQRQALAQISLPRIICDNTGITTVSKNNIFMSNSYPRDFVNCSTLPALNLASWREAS
# Protocol notes: Surface plasmon resonance (Biacore 3000) affinity on MPO
# Format: binding
# Test conditions: Table 2; compounds in the form of sulphate salts; SPR at 25° C.
Property label: Kd (µM)

Use the examples below as a reference point.
CCN(CCO)CCCC(C)Nc1ccnc2cc(Cl)cc(Cl)c12 (stereo not shown): 4
CCN(CCO)CCCC(C)Nc1ccnc2c(Cl)c(Cl)ccc12 (stereo not shown): 9
CCN(CCO)CCCC(C)Nc1c(C2CC2)cnc2cc(Cl)ccc12 (stereo not shown): 5
CCN(CCO)CCCC(C)Nc1c(Cl)cnc2cc(Cl)ccc12 (stereo not shown): 0.06

[1] CCN(CCO)CCC[C@@H](C)Nc1ccnc2cc(Cl)cc(Cl)c12 [CB321 R-enantiomer]
[2] CCN(CCO)CCC[C@@H](C)Nc1c(Cl)cnc2cc(Cl)ccc12 [CB323 R-enantioer]
[3] CCN(CCO)CCCC(C)Nc1ccnc2cc(Cl)ccc12 (stereo not shown) [Commercial HCQ, hydroxychloroquine]
Put these in order: smallest Kd first, largest last. Respond with an ordered listing of the labels, as requested.
2, 3, 1
